System: green peach aphid (Myzus persicae)
Experiment: Myzus persicae spray test (Chinese cabbage leaf discs)
Type: in vivo
Settings: foliar, 144 h, read-out: efficacy in %
measured-quantity: pest or weed control at 500 g/ha

>>> test_value("Cc1cc(C)c(-c2ccc3nn(-c4cccnc4)cc3c2)cc1SCC(F)(F)F [Example 51]")
"90%"
>>> test_value("CSCn1cc(-c2ccc3nn(-c4cccnc4)cc3c2)cn1 [Example 63]")
"90%"
>>> test_value("CN(C(=O)CCS(C)(=O)=O)c1ccc2nn(-c3cccnc3)cc2c1 [Example 129]")
"90%"
>>> test_value("Clc1cccnc1-c1ccc2nn(-c3cccnc3)cc2c1 [Example 68]")
"100%"
>>> test_value("Cc1ccc(-c2ccc3nn(-c4cccnc4)cc3c2)cc1[S+]([O-])CC(F)(F)F (stereo not drawn) [Example 53]")
"90%"
>>> test_value("Cc1cc(C)c(SCC(F)(F)F)cc1NC(=O)c1ccc2nn(-c3cccnc3)cc2c1 [Example 81]")
"90%"
>>> test_value("O=C(c1ccc2nn(-c3cccnc3)cc2c1)N1CCCC1 [Example 88]")
"100%"
>>> test_value("CN(C(=O)c1ccc2nn(-c3cccnc3)cc2c1)C1CC1 [Example 75]")
"90%"
>>> test_value("CN(C(=O)CC[S+](C)[O-])c1ccc2nn(-c3cncc(F)c3)cc2c1 (stereo not drawn) [Example 121]")
"100%"
>>> test_value("Fc1ccnc(-c2ccc3nn(-c4cccnc4)cc3c2)c1 [Example 101]")
"90%"
>>> test_value("O=C(c1ccc2nn(-c3cccnc3)cc2c1)N1CCSCC1 [Example 92]")
"100%"
>>> test_value("CN(CC(F)F)C(=O)c1ccc2nn(-c3cccnc3)cc2c1 [Example 86]")
"100%"

---

Tested on: green peach aphid (Myzus persicae)
Test: Myzus persicae spray test (Chinese cabbage leaf discs)
Type: in vivo
Conditions: foliar, 144 h, read-out: efficacy in %
// pest or weed control at 500 g/ha lookup, one value per entry
measured-quantity: pest or weed control at 500 g/ha (%)

>>> test_value("O=C(NCC(F)(F)F)c1ccc2nn(-c3cncc(F)c3)cc2c1")
90
>>> test_value("CSCC(C)C(=O)N(C)c1ccc2nn(-c3cncc(F)c3)cc2c1 (stereo not shown)")
100
>>> test_value("Cc1cc(F)c(-c2ccc3nn(-c4cccnc4)cc3c2)cc1SCC(F)(F)F")
90
>>> test_value("O=C(NCC(F)(F)F)c1ccc2nn(-c3cccnc3)cc2c1")
100

---

Test system: green peach aphid (Myzus persicae)
Experiment: Myzus persicae spray test (Chinese cabbage leaf discs)
Type: in vivo
Conditions: foliar, 144 h, read-out: efficacy in %
measured-quantity: pest or weed control at 500 g/ha

>>> test_value("Cc1ccnc(-c2ccc3nn(-c4cccnc4)cc3c2)c1")
"90%"
>>> test_value("CON(C)C(=O)c1ccc2nn(-c3cncnc3)cc2c1")
"100%"
>>> test_value("CSCCC(=O)N(C)c1ccc2nn(-c3cccnc3)cc2c1")
"90%"
>>> test_value("Cc1ccc(NC(=O)c2ccc3nn(-c4cccnc4)cc3c2)cc1SCC(F)(F)F")
"90%"
